Origin of measurements: ChEMBL document CHEMBL1136100

Entry latency by entry:
- Species: Mus musculus
- protocol: Cognition enhancing activity was evaluated by mouse passive-avoidance test using Scopolamine as amnesing drug after 2nd day
- Format: functional
recordedMetric: Entry latency (s)

• CCC(=O)N1CCC(NC(=O)c2ccccc2)CC1 = 122.8
• CC(=O)NC1CCN(S(=O)(=O)c2ccc(F)cc2)CC1 = 90.6
• CCC(=O)N1CCC(NS(=O)(=O)C(C)C)CC1 = 96.9
• CC(=O)N1CCC(NS(=O)(=O)c2ccc(F)cc2)CC1 = 126.8
• CN1[C@@H]2C[C@@H](OC(=O)[C@H](CO)c3ccccc3)C[C@H]1[C@@H]1O[C@@H]12 [SCOPOLAMINE] = 44.5
• CC(=O)NC1CCN(C(=O)c2ccccc2)CC1 = 113.5
• CC(=O)NC1CCN(S(=O)(=O)C(C)C)CC1 = 89.7
• CCC(=O)NC1CCN(S(=O)(=O)c2ccc(F)cc2)CC1 = 103.4
• CCC(=O)N1CCC(NS(=O)(=O)c2ccc(F)cc2)CC1 = 108.2
• CC(=O)N1CCC(NS(=O)(=O)C(C)C)CC1 = 99.3
• CCC(=O)NC1CCN(S(=O)(=O)C(C)C)CC1 = 102.8
• CCC(=O)NC1CCN(C(=O)c2ccccc2)CC1 = 121
